Provenance of the data: BindingDB's records for doi:10.1111/cbdd.12118

# pIC50 values compiled below
Molecular target: Enoyl-acyl carrier reductase (Plasmodium falciparum)
Sequence (Q9BH77 whole entry): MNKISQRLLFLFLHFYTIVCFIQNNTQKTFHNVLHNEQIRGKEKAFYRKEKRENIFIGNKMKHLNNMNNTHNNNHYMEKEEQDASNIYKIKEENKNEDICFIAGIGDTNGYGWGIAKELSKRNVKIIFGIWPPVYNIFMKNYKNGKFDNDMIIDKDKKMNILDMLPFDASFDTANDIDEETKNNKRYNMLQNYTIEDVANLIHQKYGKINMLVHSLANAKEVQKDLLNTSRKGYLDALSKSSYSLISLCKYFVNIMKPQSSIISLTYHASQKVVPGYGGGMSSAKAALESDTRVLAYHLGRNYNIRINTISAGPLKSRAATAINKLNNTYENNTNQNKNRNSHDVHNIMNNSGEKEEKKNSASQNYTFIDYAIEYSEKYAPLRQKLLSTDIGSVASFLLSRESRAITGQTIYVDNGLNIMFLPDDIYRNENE
# pIC50: negative log10 of molar concentration; output just the value

Here's what some known entries look like.
>  <smiles>
O=C(CNc1ccc(F)cc1)N/N=C/c1ccccc1O

>  <target entity>
Enoyl-acyl carrier reductase (Plasmodium falciparum)

>  <pIC50>
4.92

$$$$
>  <smiles>
O=C(CNc1ccccc1)N/N=C/c1ccccc1

>  <target entity>
Enoyl-acyl carrier reductase (Plasmodium falciparum)

>  <pIC50>
3.71

$$$$
>  <smiles>
O=C(CNc1cccc(Cl)c1)N/N=C/c1ccccc1

>  <target entity>
Enoyl-acyl carrier reductase (Plasmodium falciparum)

>  <pIC50>
3.76

$$$$
>  <smiles>
O=C(CNc1ccc(Cl)cc1)N/N=C/c1cccc(Br)c1

>  <target entity>
Enoyl-acyl carrier reductase (Plasmodium falciparum)

>  <pIC50>
5.15

$$$$
>  <smiles>
O=C(CNc1cccc(F)c1Cl)N/N=C/c1ccccc1Cl

>  <target entity>
Enoyl-acyl carrier reductase (Plasmodium falciparum)

>  <pIC50>
4.54

$$$$

Param item = O=C(CNc1ccccc1)N/N=C/c1ccccc1Cl ; retrieve measured pIC50. 4.05
